These entries and their values trace back to the supplement of paper PMC4466140.

Target: AgAbp1
Assay: SPOT peptide array binding signal intensity (averaged, normalized) (arbitrary units (background-subtracted, floor 0; scale differs between SH3 domains)); higher = stronger binding of the SH3 domain to the peptide
# SPOT peptide array binding signal intensity >= 30 gives TRUE, anything below gives FALSE

Reference set (4 entries):
[
  {
    "Binder": "SRQAIPPPVPNRPGG",
    "Category label": "FALSE"
  },
  {
    "Binder": "AGKRRLPLVRFKASD",
    "Category label": "TRUE"
  },
  {
    "Binder": "PSRRAPLQLPQLVNK",
    "Category label": "FALSE"
  },
  {
    "Binder": "HKVLRPFLLRRLKKD",
    "Category label": "TRUE"
  }
]

Problem: hey, is SPOT peptide array binding signal intensity for this one >= 30? RRRRRPHRIERPLSN
Solution: FALSE

Problem: hey, is SPOT peptide array binding signal intensity for this one >= 30? TKHKAPPPPPPTAET
Solution: FALSE

Problem: hey, is SPOT peptide array binding signal intensity for this one >= 30? SHRLWLYAAPKRPKT
Solution: FALSE

Problem: hey, is SPOT peptide array binding signal intensity for this one >= 30? IVNKPLPPLPVAGSS
Solution: TRUE

Problem: hey, is SPOT peptide array binding signal intensity for this one >= 30? VRVKKRPLIRPLNSS
Solution: TRUE

Problem: hey, is SPOT peptide array binding signal intensity for this one >= 30? LLRRTIPKRPFYHVL
Solution: TRUE

Problem: hey, is SPOT peptide array binding signal intensity for this one >= 30? GAGERPRLVPRPINV
Solution: FALSE

Problem: hey, is SPOT peptide array binding signal intensity for this one >= 30? NILKRRPLKLEAPSK
Solution: FALSE

Problem: hey, is SPOT peptide array binding signal intensity for this one >= 30? KTKQQKPAIPQKKSF
Solution: TRUE

Problem: hey, is SPOT peptide array binding signal intensity for this one >= 30? KKIRLIFTYPSTVGR
Solution: FALSE

Problem: hey, is SPOT peptide array binding signal intensity for this one >= 30? SKAKRPKFLLDLQIK
Solution: TRUE

Problem: hey, is SPOT peptide array binding signal intensity for this one >= 30? VFQFQMPTTPISTKM
Solution: FALSE

Problem: hey, is SPOT peptide array binding signal intensity for this one >= 30? GRLRPKRIAPWHLIQ
Solution: TRUE

Problem: hey, is SPOT peptide array binding signal intensity for this one >= 30? FFRRSELYLPNSSKA
Solution: FALSE
